Hello, the source for this data is ChEMBL document CHEMBL1201862, in case you need it.

- Test system: SK-MEL-2
- Assay explanation: NCI tumour cell line growth inhibition, 48 h
Calls of active or inactive are those of the source. Cut-off read from the data, not from the text of the source: active = GI50 up to about 1.1 µM and inactive = higher.
# GI50 annotations

As a guide, the following entries are already answered.
1) CCOC(=O)/C(=C\c1ccc(N(C)C)cc1)S(=O)(=O)C(F)(F)C(F)(F)C(F)(F)C(F)(F)F : > 100 µM (inactive)
2) COc1ccc2c(CCNC(=O)/C=C/c3ccccc3)c(C(C)=O)[nH]c2c1[N+](=O)[O-] : 17.4 µM (inactive)
3) CSc1ccc2c(cc1=O)[C@@H](NC(=O)c1ccc(Cl)cc1)CCc1cc(O)c(O)c(O)c1-2 : > 100 µM (inactive)

// GI50 lookup, molecule = `CN(C)c1ccc(/C=N\N2C(=O)c3ccccc3C2=O)cc1` , result: > 100 µM (inactive)

// GI50 lookup, molecule = O1C2C1C1OC1C1OC1C1OC21 (stereo not given) , result: > 100 µM (inactive)

====

# GI50 annotations
- Test system: U-251
- Assay explanation: NCI tumour cell line growth inhibition, 48 h
Calls of active or inactive are those of the source. Rule as the data show it: active = GI50 up to about 1.1 µM and inactive = higher.

The molecule `CN(CC(=O)O)Cc1c(O)c(Cl)cc(Cl)c1Cl` on U-251: GI50 was 17 µM (inactive)

====

# GI50 annotations
- Test system: SNB-75
- Assay explanation: NCI tumour cell line growth inhibition, 48 h
Calls of active or inactive are those of the source. Cut-off read from the data, not from the text of the source: active = GI50 up to about 1.1 µM and inactive = higher.

As a guide, the following entries are already answered.
1. O=C(NCCCCNCCCNC(=O)OCc1ccccc1)OCc1ccccc1 : 25.5 µM (inactive)
2. O=C(NCc1ccccc1)c1cc2ccccc2o/c1=N\c1cccc(C(F)(F)F)c1 : 74.8 µM (inactive)
3. CCC1=CC2Cc3nc4cc(Cl)ccc4c(N)c3C(C1)C2 (configuration not stated) : 6.35 µM (inactive)
4. O=C(OCc1ccccc1)N1c2cc([N+](=O)[O-])ccc2C(=O)N2CCC[C@H]2C1O (some centres not stated) : > 100 µM (inactive)
5. Cc1cc(=O)oc2cc(O)ccc12 [HYMECROMONE] : 39.1 µM (inactive)
6. C[C@H](NC(=O)OC1C2C=CC(O)C1CC2)c1ccccc1 (some centres not stated) : > 100 µM (inactive)
7. CC1=C(C(=O)Nc2ccccc2)C(c2ccc(C)o2)C(C#N)=C(SCc2ccccc2)N1 (configuration not stated) : > 100 µM (inactive)
8. S=C1CC(c2ccccc2)Sc2ccccc2N1 (configuration not stated) : 20.9 µM (inactive)
9. N#C/C(=C/c1ccsc1)C(=O)c1ccccc1 : > 100 µM (inactive)
10. Cc1ccc(C2C(Cl)C(=O)N2n2cnc3ccccc3c2=O)cc1 (configuration not stated) : 91.6 µM (inactive)

Now consider a different molecule.
// GI50 lookup, molecule = `O=S(=O)(CC#CCS(=O)(=O)c1ccccc1)c1ccccc1` , result: 1.48 µM (inactive)

====

# GI50 annotations
- Tested on: ACHN
- Assay explanation: NCI tumour cell line growth inhibition, 48 h
The source made the active and inactive calls. Rule as the data show it: active = GI50 up to about 1.1 µM and inactive = higher.

As a guide, the following entries are already answered.
1. Cc1[nH]c(O)nc1C(=O)c1ccc(-n2ccnc2)cc1 : > 100 µM (inactive)
2. CC1=C(c2ccccc2)C(c2ccccc2)=C(c2ccccc2)C2(c3ccccc3)C(=O)C(C)CN12 (centres undefined) : 41.4 µM (inactive)
3. CC(N1CCOCC1)C(O)(c1ccccc1)c1ccccn1 (centres undefined) : 52.8 µM (inactive)

Now consider a different compound.
The compound `CC(=O)N/C(=C\c1ccccc1/C=C(\NC(C)=O)c1nc2cc(C)c(C)cc2[nH]1)c1nc2cc(C)c(C)cc2[nH]1` on ACHN: GI50 was 14.8 µM (inactive)
